This document collects GI50 values reported for MDA-MB-435.

Field: example entries. Status: answers known.
- Molecule: "N=C(N=C(N)N)N1CCN(c2ccncc2)CC1"
  Experimental endpoint: "GI50"
  Test result: "> 1000 µM"
- Molecule: "CC/C=C\\C[C@H](O)C/C=C1/C(=O)C=C[C@@H]1C/C=C\\CCCC(=O)N(C)C"
  Experimental endpoint: "GI50"
  Test result: "0.862 µM"
- Molecule: "NC(=O)c1cc(Br)cc(C2CCCCC2)c1O"
  Experimental endpoint: "GI50"
  Test result: "14.7 µM"
- Molecule: "Cc1nc2ccc(Nc3nc(NCCN4CCOCC4)nc(Nc4ccc(F)cc4)n3)cc2n1Cc1ccccc1"
  Experimental endpoint: "GI50"
  Test result: "2.23 µM"
- Molecule: "COC(=O)c1c2c(c(C)[n+]([O-])c1C)C(=O)C=C(NCc1ccc(F)c(F)c1)C2=O"
  Experimental endpoint: "GI50"
  Test result: "0.131 µM"

Answer for every listed entry: what is its GI50? The entries follow.
1. CN(C)CCCN1c2nc3ccccc3cc2Sc2cc3ccccc3nc21
2. COc1cc(/C=C2\CC3C4CC=C5C[C@@H](OC(C)=O)CC[C@]5(C)C4CC[C@]3(C)C2=O)ccc1OCCCn1ccnc1 (some centres undefined)
3. O=C(Nc1ccc(Cl)cc1)c1ccc(NC2=C(Cl)C(=O)N(Cc3ccccc3)C2=O)cc1
4. Clc1ccc2[nH]cc(-c3nc(-c4c[nH]c5ncccc45)cs3)c2c1

["1.51 µM", "10.3 µM", "12.7 µM", "3.44 µM"]
